- Test system: Staphylococcus aureus ATCC 25923
- protocolDetails: Agar well diffusion, S. aureus
- Type: cell-based
- conditionSet: Staphylococcus aureus, ATCC25923, 60 µL of 1 mg/mL per well; ZOI including the well (6 mm); ± SD, n = 3; ciprofloxacin disk 5 μg; read-out: Staphylococcus aureus ATCC 25923 ZOI
recordedEndpoint: zone of inhibition at 1000 µg/mL (mm)
Answer with a number only, understood to be in mm.

Input O=C1C(=O)N(Cc2cn(CCCCOc3cc(=O)oc4ccccc34)nn2)c2ccc(F)cc21 [Compound 6c2] , output reported zone of inhibition at 1000 µg/mL.
12

Give the value of zone of inhibition at 1000 µg/mL reported for the following: O=C1C(=O)N(Cc2cn(CCCCOc3cc(=O)oc4ccccc34)nn2)c2ccccc21 [Compound 6c1]
8.67

Quote zone of inhibition at 1000 µg/mL reported for O=C1C(=O)N(Cc2cn(CCCOc3cc(=O)oc4ccccc34)nn2)c2ccc(F)cc21 [Compound 6b2] please.
9.33

Numbers sourced from paper PMC12114297.
